# Test system: Ribosomal RNA A-site
# measurement.description: Displacement of F-NEO from Escherichia coli rRNA-A site after 10 to 20 mins by fluorescence assay
# Type: nucleic-acid assay
reported.metric: pIC50
One number for each entry, as −log10 of the molar value.

NC[C@@H]1O[C@H](O[C@H]2[C@@H](O)[C@H](O[C@@H]3[C@@H](O)[C@H](N)C[C@H](N)[C@H]3O[C@H]3O[C@H](CN)[C@@H](O)[C@H](O)[C@H]3N)O[C@@H]2CSCCNC(=O)CCc2ccc3ccc4cccc5ccc2c3c45)[C@H](N)[C@@H](O)[C@@H]1O 6.72

Now, please, on to the next compound.
# input compound: NC[C@@H]1O[C@H](O[C@H]2[C@@H](O)[C@H](O[C@@H]3[C@@H](O)[C@H](N)C[C@H](N)[C@H]3O[C@H]3O[C@H](CN)[C@@H](O)[C@H](O)[C@H]3N)O[C@@H]2CSCCNC(=O)CCCc2ccc3ccc4cccc5ccc2c3c45)[C@H](N)[C@@H](O)[C@@H]1O ; wanted: its pIC50
6.83

====

# Tested on: Escherichia coli
# measurement.description: Antibacterial activity against NEO-sensitive Escherichia coli ATCC 25922 at 6.25 uM after 15 to 20 hrs by CLSI protocol based microdilution assay relative to control
# Type: functional
Please provide measured Activity for the entries that follow.
Numbers only, in %.

NC[C@@H]1O[C@H](O[C@H]2[C@@H](O)[C@H](O[C@@H]3[C@@H](O)[C@H](N)C[C@H](N)[C@H]3O[C@H]3O[C@H](CN)[C@@H](O)[C@H](O)[C@H]3N)O[C@@H]2CSCCNC(=O)CCCc2ccc3ccc4cccc5ccc2c3c45)[C@H](N)[C@@H](O)[C@@H]1O 7

// for each molecule in input: emit Activity
1. NC[C@@H]1O[C@H](O[C@H]2[C@@H](O)[C@H](O[C@@H]3[C@@H](O)[C@H](N)C[C@H](N)[C@H]3O[C@H]3O[C@H](CN)[C@@H](O)[C@H](O)[C@H]3N)O[C@@H]2CNC(=O)CCc2ccc3ccc4cccc5ccc2c3c45)[C@H](N)[C@@H](O)[C@@H]1O
2. NC[C@@H]1O[C@H](O[C@H]2[C@@H](O)[C@H](O[C@@H]3[C@@H](O)[C@H](N)C[C@H](N)[C@H]3O[C@H]3O[C@H](CN)[C@@H](O)[C@H](O)[C@H]3N)O[C@@H]2CSCCNC(=O)CCc2ccc3ccc4cccc5ccc2c3c45)[C@H](N)[C@@H](O)[C@@H]1O

1. 0
2. 0

====

Answer each item with its documented Activity.
# Tested on: Escherichia coli
# measurement.description: Antibacterial activity against NEO-sensitive Escherichia coli ATCC 25922 at 6.25 uM after 15 to 20 hrs by CLSI protocol based microdilution assay relative to control
# Assay type: functional
Give bare numbers, in %.

NC[C@@H]1O[C@H](O[C@H]2[C@@H](O)[C@H](O[C@@H]3[C@@H](O)[C@H](N)C[C@H](N)[C@H]3O[C@H]3O[C@H](CN)[C@@H](O)[C@H](O)[C@H]3N)O[C@@H]2CSCCNC(=O)Cc2ccc3ccc4cccc5ccc2c3c45)[C@H](N)[C@@H](O)[C@@H]1O 0
NC[C@@H]1O[C@H](O[C@H]2[C@@H](O)[C@H](O[C@@H]3[C@@H](O)[C@H](N)C[C@H](N)[C@H]3O[C@H]3O[C@H](CN)[C@@H](O)[C@H](O)[C@H]3N)O[C@@H]2CNC(=O)CCCc2ccc3ccc4cccc5ccc2c3c45)[C@H](N)[C@@H](O)[C@@H]1O 8
NC[C@@H]1O[C@H](O[C@H]2[C@@H](O)[C@H](O[C@@H]3[C@@H](O)[C@H](N)C[C@H](N)[C@H]3O[C@H]3O[C@H](CN)[C@@H](O)[C@H](O)[C@H]3N)O[C@@H]2CNC(=O)Cc2ccc3ccc4cccc5ccc2c3c45)[C@H](N)[C@@H](O)[C@@H]1O 7

Continue with the next molecule.
Return reported Activity; argument: NC[C@@H]1O[C@H](O[C@H]2[C@@H](O)[C@H](O[C@@H]3[C@@H](O)[C@H](N)C[C@H](N)[C@H]3O[C@H]3O[C@H](CN)[C@@H](O)[C@H](O)[C@H]3N)O[C@@H]2CSCCNC(=S)NCCCCCCNC(=O)CCCc2ccc3ccc4cccc5ccc2c3c45)[C@H](N)[C@@H](O)[C@@H]1O
11

====

# Tested on: Ribosomal RNA A-site
# measurement.description: Displacement of F-NEO from Escherichia coli rRNA-A site after 10 to 20 mins by fluorescence assay relative to NEO
# Type: nucleic-acid assay
# Parameters: concentration or dose not given beside the values
Consider the following compounds; for each one, report its inhibition.
One number for each entry, in %.

Below, each entry is followed by its recorded inhibition result.
NC[C@@H]1O[C@H](O[C@H]2[C@@H](O)[C@H](O[C@@H]3[C@@H](O)[C@H](N)C[C@H](N)[C@H]3O[C@H]3O[C@H](CN)[C@@H](O)[C@H](O)[C@H]3N)O[C@@H]2CSCCNC(=O)CCc2ccc3ccc4cccc5ccc2c3c45)[C@H](N)[C@@H](O)[C@@H]1O 88
NC[C@@H]1O[C@H](O[C@H]2[C@@H](O)[C@H](O[C@@H]3[C@@H](O)[C@H](N)C[C@H](N)[C@H]3O[C@H]3O[C@H](CN)[C@@H](O)[C@H](O)[C@H]3N)O[C@@H]2CSCCNC(=S)NCCCCCCNC(=O)CCCc2ccc3ccc4cccc5ccc2c3c45)[C@H](N)[C@@H](O)[C@@H]1O 64
NC[C@@H]1O[C@H](O[C@H]2[C@@H](O)[C@H](O[C@@H]3[C@@H](O)[C@H](N)C[C@H](N)[C@H]3O[C@H]3O[C@H](CN)[C@@H](O)[C@H](O)[C@H]3N)O[C@@H]2CNC(=O)CCCc2ccc3ccc4cccc5ccc2c3c45)[C@H](N)[C@@H](O)[C@@H]1O 99
NC[C@@H]1O[C@H](O[C@H]2[C@@H](O)[C@H](O[C@@H]3[C@@H](O)[C@H](N)C[C@H](N)[C@H]3O[C@H]3O[C@H](CN)[C@@H](O)[C@H](O)[C@H]3N)O[C@@H]2CNC(=O)CCc2ccc3ccc4cccc5ccc2c3c45)[C@H](N)[C@@H](O)[C@@H]1O 33
NC[C@@H]1O[C@H](O[C@H]2[C@@H](O)[C@H](O[C@@H]3[C@@H](O)[C@H](N)C[C@H](N)[C@H]3O[C@H]3O[C@H](CN)[C@@H](O)[C@H](O)[C@H]3N)O[C@@H]2CSCCNC(=O)Cc2ccc3ccc4cccc5ccc2c3c45)[C@H](N)[C@@H](O)[C@@H]1O 101
NC[C@@H]1O[C@H](O[C@H]2[C@@H](O)[C@H](O[C@@H]3[C@@H](O)[C@H](N)C[C@H](N)[C@H]3O[C@H]3O[C@H](CN)[C@@H](O)[C@H](O)[C@H]3N)O[C@@H]2CSCCNC(=O)CCCc2ccc3ccc4cccc5ccc2c3c45)[C@H](N)[C@@H](O)[C@@H]1O 78

Item under review: NC[C@@H]1O[C@H](O[C@H]2[C@@H](O)[C@H](O[C@@H]3[C@@H](O)[C@H](N)C[C@H](N)[C@H]3O[C@H]3O[C@H](CN)[C@@H](O)[C@H](O)[C@H]3N)O[C@@H]2CNC(=O)Cc2ccc3ccc4cccc5ccc2c3c45)[C@H](N)[C@@H](O)[C@@H]1O . Reported inhibition?
33

====

# Test system: Staphylococcus aureus
# measurement.description: Antibacterial activity against methicillin-resistant Staphylococcus aureus 33591 at 6.25 uM after 15 to 20 hrs by CLSI protocol based microdilution assay relative to control
# Format: functional
Kindly state Activity for each of the entries shown.
Answers are plain numbers, in %.

Example results:
NC[C@@H]1O[C@H](O[C@H]2[C@@H](O)[C@H](O[C@@H]3[C@@H](O)[C@H](N)C[C@H](N)[C@H]3O[C@H]3O[C@H](CN)[C@@H](O)[C@H](O)[C@H]3N)O[C@@H]2CNC(=O)CCCc2ccc3ccc4cccc5ccc2c3c45)[C@H](N)[C@@H](O)[C@@H]1O 23
NC[C@@H]1O[C@H](O[C@H]2[C@@H](O)[C@H](O[C@@H]3[C@@H](O)[C@H](N)C[C@H](N)[C@H]3O[C@H]3O[C@H](CN)[C@@H](O)[C@H](O)[C@H]3N)O[C@@H]2CSCCNC(=O)Cc2ccc3ccc4cccc5ccc2c3c45)[C@H](N)[C@@H](O)[C@@H]1O 0
NC[C@@H]1O[C@H](O[C@H]2[C@@H](O)[C@H](O[C@@H]3[C@@H](O)[C@H](N)C[C@H](N)[C@H]3O[C@H]3O[C@H](CN)[C@@H](O)[C@H](O)[C@H]3N)O[C@@H]2CSCCNC(=O)CCCc2ccc3ccc4cccc5ccc2c3c45)[C@H](N)[C@@H](O)[C@@H]1O 20
NC[C@@H]1O[C@H](O[C@H]2[C@@H](O)[C@H](O[C@@H]3[C@@H](O)[C@H](N)C[C@H](N)[C@H]3O[C@H]3O[C@H](CN)[C@@H](O)[C@H](O)[C@H]3N)O[C@@H]2CSCCNC(=O)CCc2ccc3ccc4cccc5ccc2c3c45)[C@H](N)[C@@H](O)[C@@H]1O 16

// next entry
What value of measured Activity is listed for NC[C@@H]1O[C@H](O[C@H]2[C@@H](O)[C@H](O[C@@H]3[C@@H](O)[C@H](N)C[C@H](N)[C@H]3O[C@H]3O[C@H](CN)[C@@H](O)[C@H](O)[C@H]3N)O[C@@H]2CSCCNC(=S)NCCCCCCNC(=O)CCCc2ccc3ccc4cccc5ccc2c3c45)[C@H](N)[C@@H](O)[C@@H]1O ?
47
